Protocol Details: reduction of polyQ htt aggregates in cells – imaging, exon1htt(103Q)mCFP cells, high-content imaging, primary screen (AID 483);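 note: compound exposure lasted 3 days before fixation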;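 for nuclei count: percent of the per-plate median nuclei count of sample wells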
Assay Setup: exon1htt(103Q)mCFP cell line, aggregate imaging, at 2 µM; measured here: cell count, toxicity
Experimental Readout: nuclei count
Answer shape: numeric part, then the unit.

Consider the reported nuclei count for these compounds:
# Compound, nuclei count
measured = [
    ("Cc1ccnc2c(N3C(=O)C4C5C=CC(C5)C4(C)C3=O)cccc12 (stereo not drawn)", "94.9%"),
    ("Cc1ccc2c(c1)NC(=O)C(CC(=O)NCCN(CC(C)C)CC(C)C)O2 (stereo not drawn)", "102%"),
]

# ---- query compound ----
Requested read-out: nuclei count. Entry: CC1CCCCC1NC(=O)C1CCN(C(=O)NC2CCCCC2)CC1 (stereo not drawn)
71.9%

* * *

Protocol Details: reduction of polyQ htt aggregates in cells – imaging, exon1htt(103Q)mCFP cells, high-content imaging, primary screen (AID 483);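 note: compound exposure lasted 3 days before fixation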
Assay Setup: exon1htt(103Q)mCFP cell line, aggregate imaging, at 2 µM; stronger effect = higher value
The entries below come with measured inhibition of aggregation values attached.
State the answer as a number, implicitly in %.

Consider the reported inhibition of aggregation for these compounds:
# Compound, inhibition of aggregation (%)
records = [
    ("c1ccc2c(c1)Cc1cc(CN3CCOCC3)ccc1-2", -2.2),
    ("COc1cc(CN2CCC(C(=O)NC3CCCC3)CC2)ccc1O", -13.7),
    ("COc1ccc(-c2noc(COc3ccc(C)c(C)c3)n2)cc1OC", 8.8),
    ("CC1CCCCC1NC(=O)C1CCN(C(=O)NC2CCCCC2)CC1 (stereo not given)", 20.6),
]

Requested read-out: inhibition of aggregation. Entry: "CC(C)(C)NC(=O)NC(=O)COc1ccccc1C#N"
-6.3

Similarly, "Cc1ccccc1OCCn1c(=O)oc2ccccc21" ?
-1.9

Similarly, CC1=C(C(=O)N2CCCCC2)C2(CCC(C)CC2)OC1=O (stereo not given) ?
-11.5

Similarly, "O=C(Cn1cc2c(n1)CCCCC2)N1CCc2ccccc2C1" ?
15.4

Similarly, "O=C(CSc1nnnn1C1CCCCC1)N1CCc2ccccc21" ?
-13.7

Similarly, CCOC(=O)c1ccc(NC(=O)Cn2cc3c(n2)CCC(C)C3)cc1 (stereo not given) ?
-28.2

* * *

The entries below come with measured fluorescence slope values attached.
Tested Target: Voltage-gated potassium channel subunit beta-2 (Rattus norvegicus)
Protocol Details: inhibitors of rat Kvbeta2 reductase activity – biochemical, NADPH fluorescence, primary screen (AID 622);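 note: slope of raw intensity against log time taken from 70 to 1610 s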
Assay Setup: recombinant KvBeta, 4-cyanobenzaldehyde reduction, at 10 µM, stronger effect = higher value
Reply with just the number.

# Substance Smiles, Experimental Readout, Val
data = [
    ("O=C1c2ccccc2C(=O)N1C/C=C/c1ccccc1", "fluorescence slope", -0.495),
    ("CS(=O)(=O)c1ccc2nc(NC(=O)c3cccs3)sc2c1", "fluorescence slope", -0.487),
]

# ---- query compound ----
# query: fluorescence slope | item "Nc1ncnc(Nc2ccccc2C(F)(F)F)n1" | system: Voltage-gated potassium channel subunit beta-2 (Rattus norvegicus)
-0.487

* * *

Tested Target: Alpha-2C adrenergic receptor (Homo sapiens)
Protocol Details: compounds altering alpha2C-coupled GIRK flux – cell-based, HEK293 alpha2C/GIRK1/2, thallium flux, primary screen (AID 624);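 note: slope of fluorescence ratio to pre-addition baseline per second over 15 to 24 s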
Assay Setup: thallium flux BTC fluorescence, at 10 µM, actives lie on both sides
Experimental Readout: slope
Reply with just the number.

# Molecule, Val
data = [
    ("COc1ccc(CN(Cc2cc3cc4c(cc3[nH]c2=O)OCO4)C(=O)NC2CCCCC2)cc1", 0.0053),
]

# query: slope | item CCc1cc2c(=O)n(C(C)C(=O)OC3CCCCC3)cnc2s1 (centres undefined) | system: Alpha-2C adrenergic receptor (Homo sapiens)
0.00382

Similarly, "CN1CCN(C(=O)C2CCN(S(=O)(=O)c3ccc4c(c3)oc(=O)n4C)CC2)CC1" ?
0.00694

Similarly, "COc1cc2c(C#N)c(N3CCOCC3)nc(N)c2c(N)n1" ?
0.00579
